Recorded values, source patent US12121500B2.

- assayed-system: human ribonuclease H1 (Homo sapiens, UniProt O60930)
- Construct: made in house; host or cells: E. coli
- Sequence (O60930 whole entry): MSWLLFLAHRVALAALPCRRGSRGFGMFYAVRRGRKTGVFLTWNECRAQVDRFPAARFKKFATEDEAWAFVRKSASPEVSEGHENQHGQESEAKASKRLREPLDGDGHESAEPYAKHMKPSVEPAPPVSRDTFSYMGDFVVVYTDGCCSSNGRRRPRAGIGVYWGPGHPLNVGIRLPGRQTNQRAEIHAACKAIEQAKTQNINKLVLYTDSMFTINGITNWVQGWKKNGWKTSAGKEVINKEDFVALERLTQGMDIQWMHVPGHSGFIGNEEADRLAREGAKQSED
- assay-notes: biochemical
- Assay type: biochemical
- stated-conditions: read-out: Human RNaseH1 (IC50)
outcome-measure: pIC50
Numbers only, as −log10 of the molar value.

Field: example entries. Status: answers known.
Cc1cc(O)c(=O)c(O)c(O)c1C(=O)c1ccc(-c2ccccc2)cc1 = 3.67
C/C(=N\c1ccc(Cl)c(Cl)c1)c1c(C)cc(O)n(O)c1=O = 3.45
Cc1cc(O)c(=O)c(O)cc1C(=O)c1cccs1 = 4.34
O=C(Cc1ccccc1)Sc1cccccc1=O = 3.19
Cc1cc(O)c(=O)c(O)cc1S(=O)(=O)c1ccccc1 = 4.07

# ---- query compound ----
Qu. pIC50 for "CCc1cccc(N=C(C)c2c(C)cc(=O)n(O)c2O)c1" ?
Ans. 3.36
